test system: MDA-MB-468 breast; test: NCI tumour cell line growth inhibition, 48 h
TEST READOUT: GI50

Inquiry: Item C=C(C)[C@@H]1CC[C@]2(C(=O)N3CCN(C)CC3)CC[C@]3(C)[C@H](CC[C@@H]4[C@@]5(C)CC[C@H](O)C(C)(C)[C@@H]5CC[C@]43C)[C@@H]12 has what recorded GI50?
Reply text: 1.82 µM

Inquiry: Item CCOC(=O)Nc1cc(-c2ccc(C)c(NS(C)(=O)=O)c2)nn2c(C)nnc12 has what recorded GI50?
Reply text: 0.557 µM

Inquiry: Item COC(=O)C[Se]C(=O)Cc1c(C)n(C(=O)c2ccc(Cl)cc2)c2ccc(OC)cc12 has what recorded GI50?
Reply text: 1.47 µM

Inquiry: Item O=C1c2ccccc2-c2ccccc2C1(Cl)Cl has what recorded GI50?
Reply text: 1.74 µM

Inquiry: Item Oc1[nH]c2ccccc2c1/C=c1/ccc2c(c1)N=C(c1cc(F)cc(F)c1)N=2 has what recorded GI50?
Reply text: 2.62 µM

Inquiry: Item COC1=CC(c2ccc[nH]2)=N/C1=C\c1[nH]c(C)c(C)c1CCC(=O)OCc1ccccc1 has what recorded GI50?
Reply text: 1.51 µM

Inquiry: Item CS(=O)(=O)c1ccc(-c2cnc(NCc3ccco3)n3cnnc23)cc1 has what recorded GI50?
Reply text: 27 µM

Inquiry: Item COc1cccc(/C=C2\CCc3ccccc3C2=O)c1 has what recorded GI50?
Reply text: 12.6 µM

FYI, the data here is from PubChem BioAssay (NCI).
